From: patent US20200247894A1

Target: T1, Human IL2Rγ extracellular domain expressed with a C-terminal myc-myc-hexahistidine tag (human)
T1 construct: also called hIL-2Rg-MMH; hIL-2RG-MMH
T1 chain: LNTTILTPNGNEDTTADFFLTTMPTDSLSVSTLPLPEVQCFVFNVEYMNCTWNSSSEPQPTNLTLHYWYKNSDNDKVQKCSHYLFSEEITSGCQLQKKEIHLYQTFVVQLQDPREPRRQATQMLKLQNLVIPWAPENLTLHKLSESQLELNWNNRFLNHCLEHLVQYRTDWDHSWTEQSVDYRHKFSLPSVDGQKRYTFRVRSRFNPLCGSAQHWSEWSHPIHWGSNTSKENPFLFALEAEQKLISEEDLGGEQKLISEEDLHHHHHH
Test: SPR, captured mAb, 37C, dissociation pH 7.4
endpoint: koff (s⁻¹)
Dear colleague, please return just the value in s⁻¹, with no unit written.

Below: 2 binders and their reported koff.
{"binder": "H4H12863P (antibody, human IgG4 S228P, kappa, V domains shown, anti-IL2Rgamma mAb expressed with human IgG4 Fc) VH: QVQLVESGGGVVQPGRSLRLSCTASGFTFRSYDMYWVRQAPGKGLEWVSVITYDGNNKYYADSVKGRFTISRDNSKNTLFLQMSSLRPEDTAVYYCAKRGLIWVGESFDYWGQGTLVTVSS VL: DIQMTQSPSTLSASVGDRVTITCRASQSINSWLAWYQQKPGKAPNLLIYKASSLESGVPSRFSGSGSGTEFTLTISSLQPDDFATYYCQQYKSYSWTFGQGTKVEIKR", "koff [s⁻¹]": 0.000672}
{"binder": "H4H12858P (antibody, human IgG4 S228P, kappa, V domains shown, anti-IL2Rgamma mAb expressed with human IgG4 Fc; also called REGN9433) VH: EVQLVESGGDLVQPGGSLRLSCTASGFIFRNYAMNWVRQAPGKGLEWLSGILGSNDNTYYVDSVKGRFTISRDNSRNTLYLQMNSLRAEDSAVYYCAKGDAGGFDYWGQGTLVTVSS VL: DVVMTQSPLSLPVILGQPASISCRSSQSLVSSDGNTYLNWFQQRPGQSPRRLIYKVSNRDSGVPDRFSGSGSGTDFTLKISRVEAEDVGAYYCMQGSYWPPTFGQGTKLEIKR", "koff [s⁻¹]": 0.000661}

Next item in the queue.
Consider the binder shown here: H4H12900P (antibody, human IgG4 S228P, kappa, V domains shown, anti-IL2Rgamma mAb expressed with human IgG4 Fc) VH: QVQLVESGGGLVKPGGSLRLSCEASGFTFNDFYMTWIRQAPGKGLEWIAYISKSGDKMRYADSVKGRFSTSRDNAKNSLSLQMNSLRAEDTAVYYCARFYGDIWGQGTLVTVSS VL: DIQLTQSPSFLSASVGDRVTITCWASQDISSFLVWYQQKPGKAPNLLIYAASALQSGVPSRFSGSGSGTEFTLTISSLQPEDFASYYCEQLNNYPWTFGQGTKVEIKR What is its recorded koff? 0.000711
